measured_target: mGluR4 (Homo sapiens)
Sequence (Q14833 33-912): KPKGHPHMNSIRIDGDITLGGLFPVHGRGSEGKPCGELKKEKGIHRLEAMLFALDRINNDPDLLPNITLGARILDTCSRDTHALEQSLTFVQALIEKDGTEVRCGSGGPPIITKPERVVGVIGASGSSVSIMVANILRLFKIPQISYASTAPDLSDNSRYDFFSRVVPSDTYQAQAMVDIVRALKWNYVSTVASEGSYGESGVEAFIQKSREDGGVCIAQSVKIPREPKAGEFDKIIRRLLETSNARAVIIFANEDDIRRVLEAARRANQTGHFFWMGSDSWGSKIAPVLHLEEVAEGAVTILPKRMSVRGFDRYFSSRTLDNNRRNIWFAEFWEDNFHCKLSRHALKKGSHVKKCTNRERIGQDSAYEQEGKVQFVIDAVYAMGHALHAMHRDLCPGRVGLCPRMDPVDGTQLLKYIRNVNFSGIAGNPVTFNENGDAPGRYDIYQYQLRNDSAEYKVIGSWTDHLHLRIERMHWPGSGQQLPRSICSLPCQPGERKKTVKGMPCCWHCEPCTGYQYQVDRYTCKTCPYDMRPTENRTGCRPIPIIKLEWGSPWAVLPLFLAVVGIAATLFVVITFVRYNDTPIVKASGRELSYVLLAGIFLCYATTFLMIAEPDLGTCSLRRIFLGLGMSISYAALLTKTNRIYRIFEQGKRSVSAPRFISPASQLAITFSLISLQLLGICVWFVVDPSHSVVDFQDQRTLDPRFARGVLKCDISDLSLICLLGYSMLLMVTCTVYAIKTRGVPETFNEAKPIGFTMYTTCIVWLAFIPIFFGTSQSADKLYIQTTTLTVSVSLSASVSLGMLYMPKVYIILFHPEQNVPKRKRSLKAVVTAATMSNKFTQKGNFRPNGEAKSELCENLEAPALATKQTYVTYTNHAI
experimental_details: Potentiation of an EC20 of glutamate in human mGluR4/Gqi5 CHO cells
Format: cell-based
pEC50: −log10 of the molar value.
quantity_name: pEC50

[I] Cc1ccc(N2C(=O)c3ccccc3NC2C(C)c2ccccc2)cc1 (centres unmarked)
[II] Cc1nc2ccccc2nc1N/N=C/c1ccc(O)cc1
Q: Quick check, higher pEC50 between I and II ? Give the label under which the chosen entry appears.
Result: II
(II: 6.19, I: 5.74)
